Where do the numbers come from? From ChEMBL document CHEMBL3407405.

target: Estrogen receptor beta (Homo sapiens, UniProt Q92731)
Sequence (Q92731 whole entry): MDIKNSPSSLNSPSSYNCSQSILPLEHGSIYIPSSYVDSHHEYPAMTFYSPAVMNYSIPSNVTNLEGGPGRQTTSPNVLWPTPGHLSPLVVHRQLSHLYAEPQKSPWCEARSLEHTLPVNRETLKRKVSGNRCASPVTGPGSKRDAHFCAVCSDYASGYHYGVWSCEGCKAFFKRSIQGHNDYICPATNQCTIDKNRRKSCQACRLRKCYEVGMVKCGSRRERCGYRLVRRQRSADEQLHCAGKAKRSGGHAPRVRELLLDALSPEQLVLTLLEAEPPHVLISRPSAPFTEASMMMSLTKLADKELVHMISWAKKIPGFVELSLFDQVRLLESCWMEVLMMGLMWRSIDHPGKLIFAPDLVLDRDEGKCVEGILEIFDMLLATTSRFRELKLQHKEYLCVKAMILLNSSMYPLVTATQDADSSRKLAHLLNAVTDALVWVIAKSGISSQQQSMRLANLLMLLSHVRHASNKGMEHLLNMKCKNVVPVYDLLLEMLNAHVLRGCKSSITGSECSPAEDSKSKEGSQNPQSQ
pEC50: −log10 of the molar value.
Entries and their pEC50
measured.endpoint: pEC50

smiles.code: C/C(=N\O)c1cc(-c2ccc(O)cc2)ccc1O
measured.endpoint: pEC50
reading: 8.40

smiles.code: C/C(=N\O)c1cc(-c2ccc(O)c(F)c2)ccc1O
measured.endpoint: pEC50
reading: 7.83

---

In what follows, each item is paired with its EC50 for Estrogen receptor beta (Homo sapiens).

smiles.code: C/C(=N\O)c1cc(-c2ccc(O)cc2)ccc1O
tested.target: Estrogen receptor beta (Homo sapiens)
unit.symbol: µM
EC50: 0.0127

smiles.code: C/C(=N\O)c1cc(-c2ccc(O)c(F)c2)ccc1O
tested.target: Estrogen receptor beta (Homo sapiens)
unit.symbol: µM
EC50: 0.035

---

Entries and their inhibition
target: Estrogen receptor (Homo sapiens) (UniProt P03372); experiment: Displacement of [3H]estradiol from human full-length ERalpha after 18 to 24 hrs by relative binding affinity/competitive radiometric binding assay relative to estradiol; conditions: concentration not given here
Sequence (P03372 whole entry): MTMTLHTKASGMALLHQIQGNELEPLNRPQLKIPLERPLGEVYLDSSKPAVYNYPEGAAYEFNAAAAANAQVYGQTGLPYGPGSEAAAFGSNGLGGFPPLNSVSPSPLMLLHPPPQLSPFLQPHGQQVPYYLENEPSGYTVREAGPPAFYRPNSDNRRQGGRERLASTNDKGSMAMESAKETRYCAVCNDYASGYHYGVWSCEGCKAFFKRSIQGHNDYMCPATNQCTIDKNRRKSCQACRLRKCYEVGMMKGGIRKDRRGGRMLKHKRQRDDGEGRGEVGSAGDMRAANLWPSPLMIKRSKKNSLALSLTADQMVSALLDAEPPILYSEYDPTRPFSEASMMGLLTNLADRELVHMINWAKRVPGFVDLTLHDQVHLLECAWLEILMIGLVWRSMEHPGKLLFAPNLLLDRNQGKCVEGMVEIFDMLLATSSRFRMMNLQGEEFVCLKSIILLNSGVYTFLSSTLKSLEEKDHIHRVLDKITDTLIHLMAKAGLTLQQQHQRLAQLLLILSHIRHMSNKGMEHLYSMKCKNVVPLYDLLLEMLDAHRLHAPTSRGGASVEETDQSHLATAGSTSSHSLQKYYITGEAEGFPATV

smiles.code: C/C(=N\O)c1cc(-c2ccc(O)c(F)c2)ccc1O
bound.operator: =
inhibition [%]: 0.16

smiles.code: C/C(=N\O)c1cc(-c2ccc(O)cc2)ccc1O
bound.operator: =
inhibition [%]: 0.54

smiles.code: CC/C(=N\O)c1cc(-c2ccc(O)cc2)ccc1O
bound.operator: =
inhibition [%]: 3

smiles.code: C/C(=N\O)c1cc(-c2ccc(O)c(C)c2)ccc1O
bound.operator: =
inhibition [%]: 0.1

smiles.code: COc1ccc(-c2ccc(O)c(/C(C)=N/O)c2)cc1
bound.operator: <
inhibition [%]: 0.005

smiles.code: C/C(=N\O)c1cc(-c2ccc(F)cc2)ccc1O
bound.operator: <
inhibition [%]: 0.005

smiles.code: COc1ccc(-c2ccc(O)c(/C(C)=N/O)c2)cc1F
bound.operator: <
inhibition [%]: 0.005

smiles.code: C/C(=N\O)c1cc(-c2ccc(O)c(Cl)c2)ccc1O
bound.operator: =
inhibition [%]: 0.033

smiles.code: CC/C(=N\O)c1cc(-c2ccc(O)c(F)c2)ccc1O
bound.operator: =
inhibition [%]: 1.9

smiles.code: C/C(=N\O)c1cc(-c2ccc(Cl)cc2)ccc1O
bound.operator: <
inhibition [%]: 0.005

smiles.code: O/N=C(/c1cc(-c2ccc(O)cc2)ccc1O)C(F)(F)F
bound.operator: =
inhibition [%]: 0.036

smiles.code: COc1ccc(-c2ccc(O)c(/C(C)=N/O)c2)cc1Cl
bound.operator: <
inhibition [%]: 0.005

smiles.code: COc1ccc(-c2ccc(O)c(/C(C)=N/O)c2)cc1C
bound.operator: <
inhibition [%]: 0.005

---

pEC50: −log10 of the molar value.
In what follows, each item is paired with its pEC50 for Estrogen receptor (Homo sapiens, UniProt P03372).
measured.endpoint: pEC50

smiles.code: C/C(=N\O)c1cc(-c2ccc(O)cc2)ccc1O
measured.endpoint: pEC50
reading: 7.08
--
smiles.code: C/C(=N\O)c1cc(-c2ccc(O)c(F)c2)ccc1O
measured.endpoint: pEC50
reading: 5.68

---

target: Estrogen receptor beta (Homo sapiens); assay: Displacement of [3H]estradiol from human full-length ERbeta after 18 to 24 hrs by relative binding affinity/competitive radiometric binding assay relative to estradiol; conditions: concentration not given here

smiles.code: COc1ccc(-c2ccc(O)c(/C(C)=N/O)c2)cc1F
inhibition: < 0.005%
--
smiles.code: COc1ccc(-c2ccc(O)c(/C(C)=N/O)c2)cc1C
inhibition: < 0.005%
--
smiles.code: COc1ccc(-c2ccc(O)c(/C(C)=N/O)c2)cc1Cl
inhibition: < 0.005%
